These data points were gathered from patent US20170355750A1.

Molecular target: T1, HER2 on the surface of BT474 cells (human, UniProt P04626)
T1 construct: full-length receptor on the cell surface
Experiment: flow cytometry on BT474 cells; scFv detected with AL2-RFP (1:1 scFv:AL fragment); MFI adjusted over cells with AL2-RFP without scFv

Binder	binding result
GH2-41 scFv (scFv) scFv: DIQMTQSPSSLSASVGDRVTITCRASQDVSNSVAWYQQKPGKAPKLLISGAAWLYSGVPSRFSGSGSGTDFTLTISSLQPEDFATYYCQQSGNFPLTFGQGTKVEIKRGGSSRSSSSGGGGSGGGGEVQLVESGGGLVQPGGSLRLSCAASGFTISNWGIHWVRQAPGKGLEWVASIGPSGGFTSYADSVKGRFTISADTSKNTAYLQMNSLRAEDTAVYYCARFYIYGGVIMDYWGQGTLVTVSSASAAA	binds
